- protocol_summary: in vivo
- cond: female, cynomolgus monkey, sc, 15 mg/kg/day, Average Concentration, Conjunctiva
quantity_kind: concentration at 42 day
Please make sure the unit comes right after the number.

Q: Please give the measured concentration at 42 day for this compound: Cc1cc(O)cc(C)c1C[C@H](NC(=O)[C@H](N)CCCNC(=N)N)C(=O)N[C@@H](CCCCN)c1nc(Cc2ccccc2)no1.Cl.Cl.Cl [Formula IIa]
Result: 4540 ng/g

###

- protocol_summary: in vivo
- cond: female, cynomolgus monkey, sc, 15 mg/kg/day, Average Concentration, Cornea
quantity_kind: concentration at 42 day (ng/g)
// note: answer is a bare numeric in ng/g

Q: State the recorded concentration at 42 day for this entry: Cc1cc(O)cc(C)c1C[C@H](NC(=O)[C@H](N)CCCNC(=N)N)C(=O)N[C@@H](CCCCN)c1nc(Cc2ccccc2)no1.Cl.Cl.Cl
Result: 149

###

- protocol_summary: in vivo
- cond: female, cynomolgus monkey, sc, 15 mg/kg/day, Concentration (ng/g), Sclera (individual animals)
quantity_kind: concentration at 42 day (ng/g)
Give your result in ng/g as a bare value.

Q: So what does the record say about concentration at 42 day for Cc1cc(O)cc(C)c1C[C@H](NC(=O)[C@H](N)CCCNC(=N)N)C(=O)N[C@@H](CCCCN)c1nc(Cc2ccccc2)no1.Cl.Cl.Cl ?
Result: 5140

###

- protocol_summary: in vivo
- cond: female, cynomolgus monkey, sc, 2 mg/kg/day, Concentration (ng/mL), Cornea (individual animals)
quantity_kind: concentration at 29 day (ng/mL)
Write the number in ng/mL without appending the unit.

Q: Given Cc1cc(O)cc(C)c1C[C@H](NC(=O)[C@H](N)CCCNC(=N)N)C(=O)N[C@@H](CCCCN)c1nc(Cc2ccccc2)no1.Cl.Cl.Cl [Formula IIa] , state its recorded concentration at 29 day.
Result: 2.67

###

- protocol_summary: in vivo
- cond: male, cynomolgus monkey, sc, 2 mg/kg/day, Average Concentration, Optic Nerve
quantity_kind: concentration at 29 day (ng/g)
Unit ng/g implied. Number only.

Q: Quick one: concentration at 29 day for Cc1cc(O)cc(C)c1C[C@H](NC(=O)[C@H](N)CCCNC(=N)N)C(=O)N[C@@H](CCCCN)c1nc(Cc2ccccc2)no1.Cl.Cl.Cl ?
Result: 22000

###

- protocol_summary: in vivo
- cond: male, cynomolgus monkey, sc, 2 mg/kg/day, Concentration, Aqueous Humor (individual animals)
quantity_kind: concentration at 29 day (ng/mL)
Report only the number, with the unit ng/mL understood.

Q: Which measured concentration at 29 day value corresponds to Cc1cc(O)cc(C)c1C[C@H](NC(=O)[C@H](N)CCCNC(=N)N)C(=O)N[C@@H](CCCCN)c1nc(Cc2ccccc2)no1.Cl.Cl.Cl ?
Result: 4

###

- protocol_summary: in vivo
- cond: female, cynomolgus monkey, sc, 15 mg/kg/day, Average Concentration, Sclera
quantity_kind: concentration at 42 day (ng/g)
Report only the number, with the unit ng/g understood.

Q: Given the compound Cc1cc(O)cc(C)c1C[C@H](NC(=O)[C@H](N)CCCNC(=N)N)C(=O)N[C@@H](CCCCN)c1nc(Cc2ccccc2)no1.Cl.Cl.Cl [Formula IIa] , what is its reported concentration at 42 day?
Result: 4700

###

- protocol_summary: in vivo
- cond: male, cynomolgus monkey, sc, 5 mg/kg/day, Average Concentration, ICB (iris/ciliary body)
quantity_kind: concentration at 29 day

Q: Query (compound): Cc1cc(O)cc(C)c1C[C@H](NC(=O)[C@H](N)CCCNC(=N)N)C(=O)N[C@@H](CCCCN)c1nc(Cc2ccccc2)no1.Cl.Cl.Cl [Formula IIa] ; field requested: concentration at 29 day
Result: 1230 ng/g

###

- protocol_summary: in vivo
- cond: male, cynomolgus monkey, sc, 2 mg/kg/day, Average Concentration, Retina
quantity_kind: concentration at 29 day (ng/g)
Note: unit ng/g is implicit; provide only the numeric part.

Q: Which concentration at 29 day is reported for this compound? Cc1cc(O)cc(C)c1C[C@H](NC(=O)[C@H](N)CCCNC(=N)N)C(=O)N[C@@H](CCCCN)c1nc(Cc2ccccc2)no1.Cl.Cl.Cl
Result: 2770

###

- protocol_summary: in vivo
- cond: female, cynomolgus monkey, sc, 5 mg/kg/day, Average Concentration, Sclera
quantity_kind: concentration at 29 day
Show the value, then the unit it is measured in.

Q: What does the record list as concentration at 29 day for Cc1cc(O)cc(C)c1C[C@H](NC(=O)[C@H](N)CCCNC(=N)N)C(=O)N[C@@H](CCCCN)c1nc(Cc2ccccc2)no1.Cl.Cl.Cl ?
Result: 837 ng/g

###

- protocol_summary: in vivo
- cond: male, cynomolgus monkey, sc, 2 mg/kg, Average Conc.
quantity_kind: concentration at 29 study day (ng/g)
Report as a plain number; the unit ng/g is understood.

Q: Please look up its concentration at 29 study day: Cc1cc(O)cc(C)c1C[C@H](NC(=O)[C@H](N)CCCNC(=N)N)C(=O)N[C@@H](CCCCN)c1nc(Cc2ccccc2)no1.Cl.Cl.Cl
Result: 22000

###

- protocol_summary: in vivo
- cond: male, cynomolgus monkey, sc, 15 mg/kg/day, Average Concentration, Sclera
quantity_kind: concentration at 42 day (ng/g)
Quick reminder: number only, in ng/g, skip the unit.

Q: # lookup: concentration at 42 day of Cc1cc(O)cc(C)c1C[C@H](NC(=O)[C@H](N)CCCNC(=N)N)C(=O)N[C@@H](CCCCN)c1nc(Cc2ccccc2)no1.Cl.Cl.Cl
Result: 3870

###

- protocol_summary: in vivo
- cond: female, cynomolgus monkey, sc, 15 mg/kg/day, Average Concentration, Choroid
quantity_kind: concentration at 42 day (ng/g)
Reply with just the number (in ng/g).

Q: Give the measured concentration at 42 day of Cc1cc(O)cc(C)c1C[C@H](NC(=O)[C@H](N)CCCNC(=N)N)C(=O)N[C@@H](CCCCN)c1nc(Cc2ccccc2)no1.Cl.Cl.Cl .
Result: 27600

###

- protocol_summary: in vivo
- cond: female, cynomolgus monkey, sc, 5 mg/kg, Average Conc.
- Procedure: Male and female cynomolgus monkeys were divided into four groups (Groups 1 to 4). Groups 1 and 4 consisted of five males and five females each and Groups 2 and 3 consisted of three males and three females each. Animals were dosed via SC injection once daily for 28 consecutive days. […] At termination, gross observations and organ weights were recorded, and eye/optic nerve tissue samples were collected for microscopic evaluation and biodistribution assays. […]
quantity_kind: concentration at 29 study day (ng/g)
// return numeric value only (unit: ng/g, not printed)

Q: Consider the compound Cc1cc(O)cc(C)c1C[C@H](NC(=O)[C@H](N)CCCNC(=N)N)C(=O)N[C@@H](CCCCN)c1nc(Cc2ccccc2)no1.Cl.Cl.Cl and give its measured concentration at 29 study day.
Result: 31800

###

- protocol_summary: in vivo
- cond: female, cynomolgus monkey, sc, 2 mg/kg/day, Concentration (ng/g), Cornea (individual animals)
quantity_kind: concentration at 29 day (ng/g)
Please give a number only; it is taken to be in ng/g.

Q: I am curious: what concentration at 29 day value has been reported for Cc1cc(O)cc(C)c1C[C@H](NC(=O)[C@H](N)CCCNC(=N)N)C(=O)N[C@@H](CCCCN)c1nc(Cc2ccccc2)no1.Cl.Cl.Cl [Formula IIa] ?
Result: 53.4

###

- protocol_summary: in vivo
- cond: male, cynomolgus monkey, sc, 15 mg/kg/day, Average Concentration, Choroid
quantity_kind: concentration at 29 day (ng/g)
Value expressed in ng/g; do not type the unit.

Q: Can you share its concentration at 29 day? I mean this molecule: Cc1cc(O)cc(C)c1C[C@H](NC(=O)[C@H](N)CCCNC(=N)N)C(=O)N[C@@H](CCCCN)c1nc(Cc2ccccc2)no1.Cl.Cl.Cl [Formula IIa]
Result: 8790

###

- protocol_summary: in vivo
- cond: male, cynomolgus monkey, sc, 15 mg/kg/day, Average Concentration, Aqueous Humor
quantity_kind: concentration at 29 day (ng/mL)
Number in ng/mL, nothing else.

Q: Any idea what concentration at 29 day was measured for Cc1cc(O)cc(C)c1C[C@H](NC(=O)[C@H](N)CCCNC(=N)N)C(=O)N[C@@H](CCCCN)c1nc(Cc2ccccc2)no1.Cl.Cl.Cl [Formula IIa] ?
Result: 14.5

###

- protocol_summary: in vivo
- cond: female, cynomolgus monkey, sc, 15 mg/kg/day, Average Concentration, Retina
- Procedure: Male and female cynomolgus monkeys were divided into four groups (Groups 1 to 4). Groups 1 and 4 consisted of five males and five females each and Groups 2 and 3 consisted of three males and three females each. Animals were dosed via SC injection once daily for 28 consecutive days. […] At termination, gross observations and organ weights were recorded, and eye/optic nerve tissue samples were collected for microscopic evaluation and biodistribution assays. […]
quantity_kind: concentration at 42 day (ng/g)
Answer in ng/g, number only, no unit symbol.

Q: Look up concentration at 42 day: Cc1cc(O)cc(C)c1C[C@H](NC(=O)[C@H](N)CCCNC(=N)N)C(=O)N[C@@H](CCCCN)c1nc(Cc2ccccc2)no1.Cl.Cl.Cl
Result: 67000
